B1: KRT34 (parent)
chain: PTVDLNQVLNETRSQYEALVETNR

Variants of: B1
Assay: protein stability index of a GFP-peptide fusion (GPS, HEK-293T) (PSI 1-6); higher = more stable;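 further: lentivirally expressed fusions sorted by FACS into six bins by GFP to DsRed ratio, PSI derived from sequencing read proportions per bin multiplied by bin number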
Conditions: c terminus: a fixed tail appended
Property Label: protein stability index
Kindly provide the number alone.

// protein stability index lookup, key: `E11T`
3.78

// protein stability index lookup, key: `P1C`
2.77

// protein stability index lookup, key: `E21I`
3.23

// protein stability index lookup, key: `N23P`
4.04

// protein stability index lookup, key: `S14Q`
2.34

// protein stability index lookup, key: `L19R`
4.81

// protein stability index lookup, key: `Q7W`
3.08

// protein stability index lookup, key: `E21C`
3.55

// protein stability index lookup, key: `L5P`
3.77

// protein stability index lookup, key: `D4S`
2.73

// protein stability index lookup, key: `V20P`
4.91

// protein stability index lookup, key: `T12C`
3.49

// protein stability index lookup, key: `R13S`
4.67

// protein stability index lookup, key: `E21W`
2.62

// protein stability index lookup, key: `L19M`
3.84

// protein stability index lookup, key: `L5T`
4.8

// protein stability index lookup, key: `T2N`
3.72

// protein stability index lookup, key: `T12Q`
2.21

// protein stability index lookup, key: `L5C`
3.68

// protein stability index lookup, key: `L19F`
3.51

// protein stability index lookup, key: `T2R`
3.66

// protein stability index lookup, key: `N23H`
4.05

// protein stability index lookup, key: `L5G`
4.68

// protein stability index lookup, key: `A18P`
4.6

// protein stability index lookup, key: `Y16A`
5.1

// protein stability index lookup, key: `T12E`
4.27

// protein stability index lookup, key: `L5V`
2.86

// protein stability index lookup, key: `S14C`
2.25

// protein stability index lookup, key: `V3K`
2.76

// protein stability index lookup, key: `R13D`
5.18

// protein stability index lookup, key: `L5E`
4.61

// protein stability index lookup, key: `T2F`
1.89

// protein stability index lookup, key: `T12N`
4.03

// protein stability index lookup, key: `R13N`
5.01

// protein stability index lookup, key: `T12D`
5.22

// protein stability index lookup, key: `V20Y`
4.09

// protein stability index lookup, key: `E21H`
3.76

// protein stability index lookup, key: `N23F`
3.71

// protein stability index lookup, key: `R13Y`
3.64

// protein stability index lookup, key: `V8K`
4.22

// protein stability index lookup, key: `N6G`
3.79

// protein stability index lookup, key: `E11S`
3.85

// protein stability index lookup, key: `Q15E`
4.16

// protein stability index lookup, key: `Q7N`
3.92

// protein stability index lookup, key: `Y16M`
4.76

// protein stability index lookup, key: `N6Q`
2.56

// protein stability index lookup, key: `A18D`
3.92

// protein stability index lookup, key: `T22P`
4.28

// protein stability index lookup, key: `D4R`
4.48

// protein stability index lookup, key: `V20N`
4.42

// protein stability index lookup, key: `P1M`
3.31

// protein stability index lookup, key: `R13C`
3.57

// protein stability index lookup, key: `V3T`
3.89

// protein stability index lookup, key: `L19P`
4.7

// protein stability index lookup, key: `N6T`
3.05

// protein stability index lookup, key: `E21A`
3.84

// protein stability index lookup, key: `Q15D`
5.05

// protein stability index lookup, key: `T2C`
2.67

// protein stability index lookup, key: `E11M`
3.95

// protein stability index lookup, key: `P1V`
2.5

// protein stability index lookup, key: `L5Y`
2.77

// protein stability index lookup, key: `L5A`
2.51

// protein stability index lookup, key: `T2E`
2.78

// protein stability index lookup, key: `T22L`
2.54

// protein stability index lookup, key: `R13F`
3.07

// protein stability index lookup, key: `E21S`
4.02

// protein stability index lookup, key: `L9C`
4.45

// protein stability index lookup, key: `E17M`
3.68

// protein stability index lookup, key: `N23M`
3.12

// protein stability index lookup, key: `Q7E`
3.25

// protein stability index lookup, key: `Q15A`
4

// protein stability index lookup, key: `T22K`
3.66

// protein stability index lookup, key: `Q7I`
2.99

// protein stability index lookup, key: `V3L`
2.65

// protein stability index lookup, key: `R24N`
4.74

// protein stability index lookup, key: `S14E`
2.23

// protein stability index lookup, key: `P1W`
2.95

// protein stability index lookup, key: `Y16F`
3.65

// protein stability index lookup, key: `A18R`
2.31

// protein stability index lookup, key: `T2D`
3.82

// protein stability index lookup, key: `E21G`
4.06

// protein stability index lookup, key: `V20K`
4.86

// protein stability index lookup, key: `Y16S`
4.98

// protein stability index lookup, key: `L19W`
3.98

// protein stability index lookup, key: `R13V`
3.42
